# melting point annotations
experimental.endpoint: melting point

compound	experimental.endpoint	reported.measurement
COC(=O)C1(NC(=O)Cc2cc(-c3ccc(Cl)cc3)ccc2Cl)CCCC(C(F)(F)F)C1 (stereo unspecified)	melting point	148 °C
COC(=O)c1ccc2ccc(OC)cc2c1O	melting point	80 to 83 °C
CCOc1cccc(-c2cn(C)cc(-c3ccccc3)c2=O)c1	melting point	133 to 135 °C
Nc1cc(N)c(OCC(F)(F)F)cc1OCC(F)(F)F	melting point	109 °C
COC(=O)C(O)CCN1C(=O)c2ccccc2C1=O (stereo unspecified)	melting point	123 to 124 °C
O=c1n(-c2cccc3ccccc23)c(=O)n(CCO)n1CCO	melting point	211 to 212 °C

* * *

# melting point annotations

compound	melting point
O=C(OCc1ccccc1)N1CCN2C(=O)OCC2C1 (racemic)	85.5 to 86.5 °C
Cc1[nH]c2ccc(F)cc2c1C(=O)NC1CCN(CCc2ccccc2)CC1	159 to 162 °C
Cc1ccc(N(CCN2CCC(C(=O)c3ccc(F)cc3)CC2)C(=O)c2cccc(N)c2)cc1	173 to 175 °C
CCCCC(=O)C(Cc1ccc(C#N)cc1)c1ccccc1 (stereo not given)	70 °C
CCOC(=O)C(=O)N(c1ccccc1[N+](=O)[O-])C(C)(C)C	73 to 74 °C

* * *

# melting point annotations

compound	melting point
CNC(=O)C(=O)c1ccccc1COc1ccccc1	78 °C
COP(=O)(CC(COc1cccc(C(F)(F)F)c1)=NNC(N)=O)OC	132 to 133 °C
CCOC(=O)c1cnc2c(C)csc2c1Nc1ccccc1C	132 to 134 °C
CCOC(=O)c1cc(-c2cc(OC)cc(OC)c2)ns1	101 to 103 °C
Cn1cc(Oc2ccc(Cl)cc2)c(=O)c(-c2cccc(C(F)(F)F)c2)c1	90 to 91 °C
CCCCn1c(=O)n(Cc2ccccc2)c(=O)c2c(Cl)cc(Cl)cc21	108 to 110 °C
CC(C)(C)c1cc(-c2ccccc2)c(Oc2cccc(C#N)c2C#N)c(-c2ccccc2)c1	189 to 192 °C
O=C(NO)c1cnc(N2CCN(S(=O)(=O)c3ccc(C(=O)Nc4ccc(Cl)c(-c5ccccn5)c4)cc3Cl)CC2)nc1	159 °C
CCOc1cc2c(cc1OCC)[C@@H]1CCCC[C@@H]1N=C2c1ccc(Cl)nc1 (racemic)	123 to 126 °C

* * *

# melting point annotations

compound	melting point
CC(C)(C)OC(=O)C(=[N+]=[N-])C(=O)C(SCc1ccccc1)C1CC(=O)N1 (stereo not given)	119 °C
CC(C)NC(=O)c1ccc([N+](=O)[O-])cc1	152 to 154 °C
O=C(CCNCc1cc(F)cc(F)c1)Nc1cccc2c1C(=O)c1c(NC(=O)CCNCc3cc(F)cc(F)c3)cccc1C2=O	190 to 191 °C
O=C(Nc1ccccc1)N1CCC(CN2CCc3c([nH]c4ccccc34)C2)CC1	207 to 209 °C
CCOCc1nc2c(N)nc3cc(-c4cccnc4)ccc3c2n1CC(O)CO (stereo not given)	202 to 204 °C
Cc1ncc(OC2CCCCO2)c(=O)[nH]1 (stereo not given)	149 to 151 °C
CC(C)n1nc(-c2c(-c3ccccc3)nn3ccc(N4CCN(S(=O)(=O)c5ccccc5)CC4)cc23)ccc1=O	219 to 220 °C
CSc1nn(C)c(=O)n1-c1ccccc1Oc1ccccc1	129 to 130 °C
COC(=O)C(C#N)=C(C=CN(C)C)c1ccc(OC)cc1	175 to 178 °C
CCCCc1nc(NC(C)=O)[nH]c(=O)c1Cc1ccc(-c2ccccc2-c2nnn[nH]2)cc1	205 to 208 °C
Nc1cc(-c2nnc(CCc3cccc(C(F)(F)F)c3)o2)ccn1	161 to 163 °C
O=C(O)COc1ccc2c(c1)OCO2	149 to 151 °C
O=Cc1cc([N+](=O)[O-])ccc1Br	86 to 88 °C
CC1CC(=O)c2c(SCc3ncn(C)n3)ccc(-c3nccs3)c2C1 (stereo not given)	130 to 131 °C
CCCCc1ccc(-c2nc(F)c(-c3ccc(OC)cc3)o2)cc1	72 °C
CCC(NC(=O)OCc1ccccc1)C(=O)Nc1ccc(-n2nc(C(F)(F)F)cc2C(F)(F)F)cc1 (stereo not given)	158 to 160 °C
O=C(Oc1ccccc1)OC1C2=C(OCCS2)C(=O)N1c1ccc2ccc(Cl)nc2n1 (stereo not given)	270 °C
C[C@@H](n1ncn(-c2ccc(OCC(F)(F)C(F)F)cc2)c1=O)[C@](O)(C=O)c1ccc(F)cc1F	134 to 136 °C
Clc1nc(NCc2cccc(I)c2)c2ncn(C3CCCO3)c2n1 (stereo not given)	180 to 182 °C
O=C1Nc2ccc(-c3cccc([N+](=O)[O-])c3)cc2C2(CCCCC2)O1	245 to 246 °C
